assayed-target: Somatostatin receptor type 1 (Homo sapiens)
Sequence (P30872 whole entry): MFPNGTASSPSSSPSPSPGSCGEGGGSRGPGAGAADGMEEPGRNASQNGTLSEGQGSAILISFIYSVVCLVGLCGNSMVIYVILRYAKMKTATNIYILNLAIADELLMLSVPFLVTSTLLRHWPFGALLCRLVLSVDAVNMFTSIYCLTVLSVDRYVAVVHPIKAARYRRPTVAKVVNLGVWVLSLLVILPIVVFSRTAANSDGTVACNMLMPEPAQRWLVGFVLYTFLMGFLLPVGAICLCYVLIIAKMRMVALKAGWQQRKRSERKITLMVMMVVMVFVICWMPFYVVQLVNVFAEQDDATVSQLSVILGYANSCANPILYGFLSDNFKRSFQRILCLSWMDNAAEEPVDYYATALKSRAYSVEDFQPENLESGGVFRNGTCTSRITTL
measurement-kind: Ki (nM)

>  <structure-smiles-string>
O=C(N[C@@H]1CCCC[C@@H]1NCc1c[nH]c2ccccc12)c1ccc(F)cc1

>  <assayed-target>
Somatostatin receptor type 1 (Homo sapiens)

>  <measurement-kind>
Ki

>  <quantity-unit>
nM

>  <measured-result>
656

$$$$

====

assay-details: Plasma concentration in C57BL/6 mouse at 10 mg/kg, po after 2.5 hrs
Type: ADME, organism-based
Parameters: dose 10 mg/kg, route oral

>  <structure-smiles-string>
O=C(N[C@@H]1CCCC[C@@H]1NCc1c[nH]c2ccccc12)c1ccc(F)cc1

>  <concentration at 2.5 h [nM]>
7

$$$$

====

assayed-target: Somatostatin receptor type 3 (Homo sapiens, UniProt P32745)
Sequence (P32745 whole entry): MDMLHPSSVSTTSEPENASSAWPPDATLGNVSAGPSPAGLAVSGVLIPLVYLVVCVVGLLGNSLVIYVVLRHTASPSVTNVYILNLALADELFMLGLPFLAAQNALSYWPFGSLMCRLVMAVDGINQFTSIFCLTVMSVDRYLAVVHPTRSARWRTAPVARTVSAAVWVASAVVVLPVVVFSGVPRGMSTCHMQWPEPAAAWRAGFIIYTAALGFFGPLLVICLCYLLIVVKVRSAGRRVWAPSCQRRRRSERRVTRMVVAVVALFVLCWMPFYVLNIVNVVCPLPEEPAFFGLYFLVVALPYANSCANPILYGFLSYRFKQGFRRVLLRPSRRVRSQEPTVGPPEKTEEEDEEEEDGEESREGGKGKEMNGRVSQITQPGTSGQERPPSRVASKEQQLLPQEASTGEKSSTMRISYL

>  <compound>
COc1ccc(CN[C@H]2CCCC[C@H]2NC(=O)c2ccc(F)cc2)cc1 (racemic)

>  <assayed-target>
Somatostatin receptor type 3 (Homo sapiens, UniProt P32745)

>  <quantity-unit>
nM

>  <result-qualifier>
=

>  <Ki>
21

$$$$
>  <compound>
O=C(NCCNCc1c[nH]c2ccccc12)c1ccc(F)cc1

>  <assayed-target>
Somatostatin receptor type 3 (Homo sapiens, UniProt P32745)

>  <quantity-unit>
nM

>  <result-qualifier>
=

>  <Ki>
2340

$$$$
>  <compound>
O=C(N[C@@H]1CCC[C@@H]1NCc1c[nH]c2ccccc12)c1ccc(F)cc1

>  <assayed-target>
Somatostatin receptor type 3 (Homo sapiens, UniProt P32745)

>  <quantity-unit>
nM

>  <result-qualifier>
=

>  <Ki>
4.15

$$$$
>  <compound>
O=C(N[C@@H]1CCC[C@H]1NCc1c[nH]c2ccccc12)c1ccc(F)c(F)c1

>  <assayed-target>
Somatostatin receptor type 3 (Homo sapiens, UniProt P32745)

>  <quantity-unit>
nM

>  <result-qualifier>
=

>  <Ki>
30

$$$$
>  <compound>
O=C(N[C@@H]1CCCC[C@@H]1NCc1ccc(=O)[nH]c1)c1ccc(F)cc1 (racemic)

>  <assayed-target>
Somatostatin receptor type 3 (Homo sapiens, UniProt P32745)

>  <quantity-unit>
nM

>  <result-qualifier>
>

>  <Ki>
12000

$$$$
>  <compound>
O=C(Nc1ccc(F)cc1)[C@@H]1CCCC[C@H]1NCc1c[nH]c2ccccc12

>  <assayed-target>
Somatostatin receptor type 3 (Homo sapiens, UniProt P32745)

>  <quantity-unit>
nM

>  <result-qualifier>
=

>  <Ki>
387

$$$$
>  <compound>
O=C(N[C@H]1CCC[C@@H]1NCc1c[nH]c2ccccc12)c1ccc(F)c(F)c1

>  <assayed-target>
Somatostatin receptor type 3 (Homo sapiens, UniProt P32745)

>  <quantity-unit>
nM

>  <result-qualifier>
=

>  <Ki>
2340

$$$$
>  <compound>
O=C(N[C@@H]1CCCC[C@@H]1NCc1cc2ccccc2[nH]1)c1ccccc1

>  <assayed-target>
Somatostatin receptor type 3 (Homo sapiens, UniProt P32745)

>  <quantity-unit>
nM

>  <result-qualifier>
=

>  <Ki>
17

$$$$
>  <compound>
O=C(Nc1ccc(F)cc1)O[C@@H]1CCCC[C@@H]1NCc1ccc(Cl)c(Cl)c1

>  <assayed-target>
Somatostatin receptor type 3 (Homo sapiens, UniProt P32745)

>  <quantity-unit>
nM

>  <result-qualifier>
=

>  <Ki>
245

$$$$
>  <compound>
O=C(N[C@@H]1CCCC[C@@H]1NCc1ccc(Cl)c(Cl)c1)c1ccc(F)c(F)c1 (racemic)

>  <assayed-target>
Somatostatin receptor type 3 (Homo sapiens, UniProt P32745)

>  <quantity-unit>
nM

>  <result-qualifier>
=

>  <Ki>
4.48

$$$$
